B1: library; numbered along this chain (parent)
chain: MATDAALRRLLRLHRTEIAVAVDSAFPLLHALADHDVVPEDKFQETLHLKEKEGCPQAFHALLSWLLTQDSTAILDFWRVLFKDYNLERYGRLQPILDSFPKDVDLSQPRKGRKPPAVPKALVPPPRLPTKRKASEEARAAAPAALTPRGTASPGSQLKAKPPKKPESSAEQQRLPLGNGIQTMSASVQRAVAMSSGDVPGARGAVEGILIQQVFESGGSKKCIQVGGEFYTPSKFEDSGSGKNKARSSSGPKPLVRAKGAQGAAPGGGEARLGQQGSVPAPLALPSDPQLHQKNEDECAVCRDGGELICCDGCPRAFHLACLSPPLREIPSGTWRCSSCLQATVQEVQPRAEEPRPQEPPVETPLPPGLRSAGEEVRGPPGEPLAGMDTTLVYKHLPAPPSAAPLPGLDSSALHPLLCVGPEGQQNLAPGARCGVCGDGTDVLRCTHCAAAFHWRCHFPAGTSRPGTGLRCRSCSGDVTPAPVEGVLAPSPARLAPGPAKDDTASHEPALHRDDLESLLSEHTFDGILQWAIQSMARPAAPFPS

- Variants of: B1
- assay: AIRE transcriptional activation functional score (insulin promoter-GFP; nonsense median 0, synonymous median 1) (normalised score); higher = higher AIRE activity (more reporter activation)
- condition_notes: with insulin promoter-GFP reporter in HEK293
recorded_endpoint: AIRE transcriptional activation functional score
Give the figure only, with no unit attached.

>  <mut>
C310K

>  <experimental_value>
0.681

$$$$

Now look at this one.
Can you share its AIRE transcriptional activation functional score? I mean this variant: `P154S`
0.685
